Values from the NIST ThermoML archive (doi:10.1021/je201289w)

Assay: refractive index (Na D-line) (dimensionless)
Details: 308.15 K; 101.33 kPa; Liquid; Standard Abbe refractometry
valueType: refractive index
Answers are plain numbers.

Here is how some compounds turned out for refractive index.
{"compound": "CCn1cc[n+](C)c1.F[B-](F)(F)F [1-ethyl-3-methylimidazolium tetrafluoroborate]", "numericResult": 1.40934}
{"compound": "CCCCn1cc[n+](C)c1.O=S(=O)([N-]S(=O)(=O)C(F)(F)C(F)(F)C(F)(F)C(F)(F)F)C(F)(F)C(F)(F)C(F)(F)C(F)(F)F", "numericResult": 1.38516}
{"compound": "CCOS(=O)(=O)[O-].CCn1cc[n+](C)c1 [1-ethyl-3-methylimidazolium ethyl sulfate]", "numericResult": 1.47657}
{"compound": "CCn1cc[n+](C)c1.CS(=O)(=O)[O-] [1-ethyl-3-methylimidazolium methanesulfonate]", "numericResult": 1.49308}
{"compound": "CCn1cc[n+](C)c1.N#C[S-] [1-ethyl-3-methylimidazolium thiocyanate]", "numericResult": 1.5485}

For every item below, please supply its refractive index.
1. CCC[N+]1(C)CCCC1.O=S(=O)([N-]S(=O)(=O)C(F)(F)F)C(F)(F)F
2. CCn1cc[n+](C)c1.N#C[B-](C#N)(C#N)C#N [1-ethyl-3-methylimidazolium tetracyanoborate]
3. CCn1cc[n+](C)c1.O=S(=O)([N-]S(=O)(=O)C(F)(F)F)C(F)(F)F
4. CCn1cc[n+](C)c1.N#CN=C=[N-] [1-ethyl-3-methylimidazolium dicyanamide]
5. CCn1cc[n+](C)c1.O=S(=O)([O-])O [1-ethyl-3-methylimidazolium hydrogen sulfate]

RESULT:
1. 1.41792
2. 1.44421
3. 1.42022
4. 1.50963
5. 1.49489

---

Settings: 318.15 K; 101.33 kPa; Liquid; Vibrating tube method
valueType: mass density (kg/m3)
Give bare numbers, in kg/m3.

{"compound": "CCn1cc[n+](C)c1.F[B-](F)(F)F [1-ethyl-3-methylimidazolium tetrafluoroborate]", "unitAbbrev": "kg/m3", "numericResult": 1265.3}
{"compound": "CCn1cc[n+](C)c1.N#C[S-] [1-ethyl-3-methylimidazolium thiocyanate]", "unitAbbrev": "kg/m3", "numericResult": 1103.3}
{"compound": "CCn1cc[n+](C)c1.O=S(=O)([N-]S(=O)(=O)C(F)(F)F)C(F)(F)F", "unitAbbrev": "kg/m3", "numericResult": 1498.3}

QUERY: Using known records, supply mass density for CCCCn1cc[n+](C)c1.O=S(=O)([N-]S(=O)(=O)C(F)(F)C(F)(F)C(F)(F)C(F)(F)F)C(F)(F)C(F)(F)C(F)(F)C(F)(F)F
RESULT: 1587.4

---

Experiment: refractive index (Na D-line) (dimensionless)
Settings: 283.15 K; 101.33 kPa; Liquid; Standard Abbe refractometry
valueType: refractive index
Give bare numbers.

{"compound": "CCn1cc[n+](C)c1.F[B-](F)(F)F [1-ethyl-3-methylimidazolium tetrafluoroborate]", "numericResult": 1.41546}
{"compound": "CCn1cc[n+](C)c1.N#C[S-] [1-ethyl-3-methylimidazolium thiocyanate]", "numericResult": 1.556}

For every item below, please supply its refractive index.
1. CCn1cc[n+](C)c1.CS(=O)(=O)[O-] [1-ethyl-3-methylimidazolium methanesulfonate]
2. CCn1cc[n+](C)c1.O=S(=O)([N-]S(=O)(=O)C(F)(F)F)C(F)(F)F
3. CCC[N+]1(C)CCCC1.O=S(=O)([N-]S(=O)(=O)C(F)(F)F)C(F)(F)F
4. CCn1cc[n+](C)c1.O=S(=O)([O-])O [1-ethyl-3-methylimidazolium hydrogen sulfate]
5. CCOS(=O)(=O)[O-].CCn1cc[n+](C)c1 [1-ethyl-3-methylimidazolium ethyl sulfate]
6. CCCCn1cc[n+](C)c1.O=S(=O)([N-]S(=O)(=O)C(F)(F)C(F)(F)C(F)(F)C(F)(F)F)C(F)(F)C(F)(F)C(F)(F)C(F)(F)F
7. CCn1cc[n+](C)c1.N#C[B-](C#N)(C#N)C#N [1-ethyl-3-methylimidazolium tetracyanoborate]
8. CCn1cc[n+](C)c1.N#CN=C=[N-] [1-ethyl-3-methylimidazolium dicyanamide]

RESULT:
[1.49994, 1.42738, 1.42474, 1.50042, 1.48317, 1.39249, 1.45284, 1.51774]

---

Could you please report measured mass density for the items listed next?
Settings: 283.15 K; 101.33 kPa; Liquid; Vibrating tube method
One number for each entry, in kg/m3.

{"compound": "CCn1cc[n+](C)c1.N#C[S-] [1-ethyl-3-methylimidazolium thiocyanate]", "valueType": "mass density", "numericResult": 1124.7}
{"compound": "CCn1cc[n+](C)c1.CS(=O)(=O)[O-] [1-ethyl-3-methylimidazolium methanesulfonate]", "valueType": "mass density", "numericResult": 1252}
{"compound": "CCC[N+]1(C)CCCC1.O=S(=O)([N-]S(=O)(=O)C(F)(F)F)C(F)(F)F", "valueType": "mass density", "numericResult": 1441}
{"compound": "CCn1cc[n+](C)c1.O=S(=O)([O-])O [1-ethyl-3-methylimidazolium hydrogen sulfate]", "valueType": "mass density", "numericResult": 1376.7}
{"compound": "CCn1cc[n+](C)c1.O=S(=O)([N-]S(=O)(=O)C(F)(F)F)C(F)(F)F", "valueType": "mass density", "numericResult": 1533.8}

For every item below, please supply its mass density.
1. CCn1cc[n+](C)c1.N#C[B-](C#N)(C#N)C#N [1-ethyl-3-methylimidazolium tetracyanoborate]
2. CCn1cc[n+](C)c1.F[B-](F)(F)F [1-ethyl-3-methylimidazolium tetrafluoroborate]

RESULT:
1041
1292

---

Details: 333.15 K; 101.33 kPa; Liquid; Vibrating tube method
Could you please report measured mass density for the items listed next?
Give bare numbers, in kg/m3.

{"compound": "CCC[N+]1(C)CCCC1.O=S(=O)([N-]S(=O)(=O)C(F)(F)F)C(F)(F)F", "unitAbbrev": "kg/m3", "mass density": 1396}

For every item below, please supply its mass density.
1. CCn1cc[n+](C)c1.F[B-](F)(F)F [1-ethyl-3-methylimidazolium tetrafluoroborate]
2. CCn1cc[n+](C)c1.O=S(=O)([O-])O [1-ethyl-3-methylimidazolium hydrogen sulfate]
3. CCn1cc[n+](C)c1.N#CN=C=[N-] [1-ethyl-3-methylimidazolium dicyanamide]
4. CCn1cc[n+](C)c1.O=S(=O)([N-]S(=O)(=O)C(F)(F)F)C(F)(F)F

RESULT:
1254
1345.4
1078.3
1483.4

For every item below, please supply its mass density.
1. CCCCn1cc[n+](C)c1.O=S(=O)([N-]S(=O)(=O)C(F)(F)C(F)(F)C(F)(F)C(F)(F)F)C(F)(F)C(F)(F)C(F)(F)C(F)(F)F
2. CCn1cc[n+](C)c1.N#C[B-](C#N)(C#N)C#N [1-ethyl-3-methylimidazolium tetracyanoborate]
3. CCOS(=O)(=O)[O-].CCn1cc[n+](C)c1 [1-ethyl-3-methylimidazolium ethyl sulfate]
4. CCn1cc[n+](C)c1.CS(=O)(=O)[O-] [1-ethyl-3-methylimidazolium methanesulfonate]

RESULT:
1. 1570
2. 1001.3
3. 1214.2
4. 1218.1

QUERY: Using known records, supply mass density for CCn1cc[n+](C)c1.N#C[S-] [1-ethyl-3-methylimidazolium thiocyanate]
RESULT: 1094.4

---

Experiment: refractive index (Na D-line) (dimensionless)
Details: 348.15 K; 101.33 kPa; Liquid; Standard Abbe refractometry
Numbers after ± are expanded uncertainties.
valueType: refractive index

{"compound": "CCn1cc[n+](C)c1.O=S(=O)([N-]S(=O)(=O)C(F)(F)F)C(F)(F)F", "refractive index": "1.40902 ± 0.00063"}
{"compound": "CCOS(=O)(=O)[O-].CCn1cc[n+](C)c1 [1-ethyl-3-methylimidazolium ethyl sulfate]", "refractive index": "1.46596 ± 0.00062"}
{"compound": "CCC[N+]1(C)CCCC1.O=S(=O)([N-]S(=O)(=O)C(F)(F)F)C(F)(F)F", "refractive index": "1.40718 ± 0.00062"}

For every item below, please supply its refractive index.
1. CCCCn1cc[n+](C)c1.O=S(=O)([N-]S(=O)(=O)C(F)(F)C(F)(F)C(F)(F)C(F)(F)F)C(F)(F)C(F)(F)C(F)(F)C(F)(F)F
2. CCn1cc[n+](C)c1.N#CN=C=[N-] [1-ethyl-3-methylimidazolium dicyanamide]
3. CCn1cc[n+](C)c1.N#C[B-](C#N)(C#N)C#N [1-ethyl-3-methylimidazolium tetracyanoborate]
4. CCn1cc[n+](C)c1.O=S(=O)([O-])O [1-ethyl-3-methylimidazolium hydrogen sulfate]
5. CCn1cc[n+](C)c1.N#C[S-] [1-ethyl-3-methylimidazolium thiocyanate]

RESULT:
1: 1.3735 ± 0.00064; 2: 1.49708 ± 0.00064; 3: 1.43085 ± 0.00065; 4: 1.48623 ± 0.00061; 5: 1.53687 ± 0.00063
